- System: HCC 2998
- PROTOCOL_SUMMARY: NCI tumour cell line growth inhibition, 48 h
Active and inactive are the calls of the source. Cut-off read from the data, not from the text of the source: active = GI50 up to about 1.1 µM and inactive = higher.
Attribute: GI50

Study these solved cases before continuing.
INSERT INTO assay_data (compound, reading) VALUES
  ('Nc1ccc(Nc2c3ccccc3nc3ccccc23)cc1', '> 10 µM (inactive)'),
  ('CC1C(=O)CC[C@@]2(C)C(=O)CCCC12O (some centres undefined)', '> 100 µM (inactive)'),
  ('Cc1c(Cl)c(S(N)(=O)=O)cc2c1N=CNS2(=O)=O', '> 100 µM (inactive)');

Form field: reported GI50 of O=C1c2ccccc2C(=O)c2c1ccc(C(=O)O)c2-c1ccc2ccccc2c1
25.9 µM (inactive)

###

- Tested on: M19-MEL
- PROTOCOL_SUMMARY: NCI tumour cell line growth inhibition, 48 h
Calls of active or inactive are those of the source. No stated cut-off is given here; in the data, active = GI50 up to about 1.1 µM and inactive = higher.
Attribute: GI50

Study these solved cases before continuing.
INSERT INTO results (molecule, reading) VALUES
  ('O=C(NCCCC/N=c1/cccccc1NCCCCNC(=O)OCc1ccccc1)OCc1ccccc1', '20.2 µM (inactive)'),
  ('Cn1c(=O)c2nc(NCCO)cnc2n(C)c1=O', '56.5 µM (inactive)'),
  ('Fc1ccc2c(c1)cc1ccc3cccc4ccc2c1c34', '> 100 µM (inactive)'),
  ('O=C(/C=C/c1c(O)ccc2ccccc12)c1ccccc1Cl', '14 µM (inactive)'),
  ('Cn1cnc([N+](=O)[O-])c1Sc1nc2ccccc2[nH]1', '14.9 µM (inactive)');

Form field: reported GI50 of COc1ccc2c(c1)C(=O)N1CCOC1C2C(=O)O (stereo unspecified)
> 100 µM (inactive)

Form field: reported GI50 of CCc1c(C)[nH]c2c1/C(=N/N=C1\CCCc3[nH]c(C)c(CC)c31)CCC2
20.6 µM (inactive)

###

Attribute: GI50
- System: OVCAR-8
- PROTOCOL_SUMMARY: NCI tumour cell line growth inhibition, 48 h
The source made the active and inactive calls. Rule as the data show it: active = GI50 up to about 1.1 µM and inactive = higher.

Study these solved cases before continuing.
INSERT INTO results (compound, reading) VALUES
  ('O=C(Oc1c(Cl)cc(C2(c3cc(Cl)c(OC(=O)c4ccccc4)c(Cl)c3)CCCCC2)cc1Cl)c1ccccc1', '15.9 µM (inactive)'),
  ('CC(Oc1ccc2c(-c3ccc(Cl)cc3)cc(=O)oc2c1)C(=O)O (centres undefined)', '> 100 µM (inactive)'),
  ('C=C1C[C@H](O)[C@H](Br)C(C)(C)C12CCC(C)(Cl)C(Br)C2 (some centres undefined)', '1.23 µM (inactive)'),
  ('O=C1CSC(c2cc3cc(Br)ccc3nc2Cl)N1c1ccc(F)c(Cl)c1 (centres undefined)', '> 50 µM (inactive)'),
  ('COc1cc2c(c(N)c1OC)C(=O)/C(=C/c1cc(C)c(O)c(C)c1)C2', '< 0.01 µM (active)'),
  ('C/C=C\C1OC1(C)c1cc(=O)c2c(C)cc3c(c2o1)C(=O)c1c(O)c(C2CC(C)(N(C)C)C(OC(C)=O)C(C)O2)cc(C2CC(N(C)C)C(O)C(C)O2)c1C3=O (centres undefined)', '< 0.00375 µM (active)');

Form field: reported GI50 of C/C(=N\NC1=NCCN1)c1cn(C2=NCCN2)nc1C
> 100 µM (inactive)

Form field: reported GI50 of Cn1cnc([N+](=O)[O-])c1Sc1nc2ccccc2[nH]1
11.7 µM (inactive)

Form field: reported GI50 of Cn1ccnc1C(c1nccn1C)C(C)(C)[N+](=O)[O-]
> 100 µM (inactive)

###

Attribute: GI50
- Test system: SK-MEL-28
- PROTOCOL_SUMMARY: NCI tumour cell line growth inhibition, 48 h
The source made the active and inactive calls. Rule as the data show it: active = GI50 up to about 1.1 µM and inactive = higher.

INSERT INTO measurements (structure_string, observed_property, reading) VALUES
  ('Cn1cnc([N+](=O)[O-])c1Sc1nc2ccccc2[nH]1', 'GI50', '13.1 µM (inactive)'),
  ('O=C1C[C@@H](Sc2ccccc2)C2(OCCO2)[C@H]2ON3CCC[C@@H]3[C@@H]12', 'GI50', '7.83 µM (inactive)'),
  ('CCCCNc1nc(SC)nc2[nH]cnc12', 'GI50', '> 100 µM (inactive)'),
  ('CCCCCCNC(=O)c1cc(CCc2cc(O)ccc2O)ccc1O', 'GI50', '2.74 µM (inactive)'),
  ('COc1ccc2cc(CN3CCC(C4CCNCC4)CC3)ccc2c1', 'GI50', '1.75 µM (inactive)');

Now examine the next entry.
Form field: reported GI50 of COc1cc(OC)c(Oc2cccc(OC)c2OC)c(OC)c1
> 100 µM (inactive)

###

Attribute: GI50
- Tested on: A498
- PROTOCOL_SUMMARY: NCI tumour cell line growth inhibition, 48 h
The source made the active and inactive calls. Rule as the data show it: active = GI50 up to about 1.1 µM and inactive = higher.

Study these solved cases before continuing.
INSERT INTO measurements (compound, observed_property, reading) VALUES
  ('CC(=O)Nc1ccccc1S(=O)(=O)c1ccccc1', 'GI50', '> 100 µM (inactive)'),
  ('COc1ccc(OC)c(-c2nc3n(c2/C=C2/C(=O)Nc4ccccc42)CCS3)c1', 'GI50', '48.5 µM (inactive)'),
  ('CN(CC(=O)O)S(=O)(=O)c1ccc2ccccc2c1', 'GI50', '> 100 µM (inactive)'),
  ('COc1ccc(-c2coc3cc(OC)cc(O)c3c2=O)cc1 [4'',7-DIMETHOXY-5-HYDROXYGENISTEIN]', 'GI50', '24.8 µM (inactive)'),
  ('CC(=O)c1nc2ccccc2n1C(C)C(=O)c1ccccc1 (stereo unspecified)', 'GI50', '> 100 µM (inactive)');

Form field: reported GI50 of CCOC(=O)C(Cc1ccc(N(CCCl)CCCl)cc1)NC(=O)CCCN1C(=O)CN=C(c2ccccc2)c2cc(Cl)ccc21 (stereo unspecified)
39.9 µM (inactive)

Form field: reported GI50 of Nc1n[nH]c(Nc2ccc(Cl)cc2)c1P(=O)(c1ccccc1)c1ccccc1
37.8 µM (inactive)

###

- Tested on: LOX IMVI
- PROTOCOL_SUMMARY: NCI tumour cell line growth inhibition, 48 h
Activity calls are given as the source filed them. Cut-off read from the data, not from the text of the source: active = GI50 up to about 1.1 µM and inactive = higher.
Attribute: GI50

INSERT INTO results (compound, reading) VALUES
  ('CCN(CC)C(=S)SC1CCOP(=O)(N(CCCl)CCCl)N1C (stereo not given)', '1.41 µM (inactive)'),
  ('N=C(N)NS(=O)(=O)c1ccc(Nc2c3ccccc3nc3c(C(=O)NC(CO)(CO)CO)cccc23)cc1', '18.7 µM (inactive)'),
  ('O=C(NNC(=O)c1cc2ccccc2[nH]1)c1cc2ccccc2[nH]1', '> 100 µM (inactive)');

Form field: reported GI50 of Nc1ccc2c(SCc3ccc([N+](=O)[O-])cc3)c3ccccc3nc2c1
6.84 µM (inactive)

Form field: reported GI50 of COC(=O)C12CCC(C)(C)CC1C1=CCC3C4(C)CC(O)C(O)C(C)(C(=O)OC)C4CCC3(C)C1(CO)CC2 (stereo not given)
14 µM (inactive)

Form field: reported GI50 of OCCN(/N=C\c1ccc2ccccc2c1)C1=NCCN1
16.3 µM (inactive)

Form field: reported GI50 of Oc1cc(-c2ccc(F)cc2)nc2ncc(Cl)cc12
28.6 µM (inactive)

###

- Test system: MCF7
- PROTOCOL_SUMMARY: NCI tumour cell line growth inhibition, 48 h
Active and inactive are the calls of the source. No stated cut-off is given here; in the data, active = GI50 up to about 1.1 µM and inactive = higher.
Attribute: GI50

Study these solved cases before continuing.
INSERT INTO assay_data (molecule, target_desc, reading) VALUES
  ('COc1cc(C2c3cc4c(cc3[C@@H](Nc3ccccc3)C3COC[C@H]23)OCO4)cc(OC)c1O (some centres undefined)', 'MCF7', '0.512 µM (active)'),
  ('COC(=O)C12CCC(C)(C)CC1C1=CCC3C4(C)CC(O)C(O)C(C)(C(=O)OC)C4CCC3(C)C1(CO)CC2 (centres undefined)', 'MCF7', '14.1 µM (inactive)'),
  ('O=C(Nc1ncc([N+](=O)[O-])s1)c1ccccc1O [TIZOXANIDE]', 'MCF7', '13.7 µM (inactive)'),
  ('CCN(CC)c1ccc(/C=C/C2=NN(c3cccc(S(=O)(=O)O)c3)C3(C2)C(Cl)C(=O)N3c2nc3ccccc3s2)cc1 (centres undefined)', 'MCF7', '6.7 µM (inactive)'),
  ('CC1=C(C#N)C2C(=C(N)Oc3ccccc32)C(N)=N1 (centres undefined)', 'MCF7', '6.56 µM (inactive)'),
  ('COc1ccc(NC(C(N)=O)c2cc3cc(Br)ccc3nc2Cl)cc1 (centres undefined)', 'MCF7', '32.4 µM (inactive)'),
  ('COC(=O)c1ccccc1/C=C1\Cc2ccc3ccccc3c2C1C (centres undefined)', 'MCF7', '50.4 µM (inactive)'),
  ('CC(C)c1c(O)c(O)c2c(c1O)C(=O)C(O)=C1C(C)(C)CCC[C@@]12C', 'MCF7', '3.13 µM (inactive)');

Form field: reported GI50 of CC(=O)OCC1OC(n2c3c(c(-c4cccc5ccccc45)c(C#N)c2=S)CCCC3)C(OC(C)=O)C(OC(C)=O)C1OC(C)=O (centres undefined)
> 100 µM (inactive)
